Consider the following compounds; for each one, report its logP.
Kindly provide the number alone.

Ask: So what's the measured logP for this one? CC1CCC(=O)N1C (stereo not drawn)
Reply: -0.07

Ask: Also "Clc1c(Cl)c(Cl)c2c(Cl)c(Cl)c(Cl)c(Cl)c2c1Cl" ?
Reply: 8.5

Ask: Similarly, "COc1ccccc1C=O" ?
Reply: 1.72

Ask: Repeat with CCOC(C(=O)OCc1ccccc1)C(C)C (stereo not drawn)
Reply: 3.29

Ask: Moving on to the next compound: "Nc1cc(Cl)c(S(N)(=O)=O)cc1S(N)(=O)=O"
Reply: -0.41

Ask: Query "Cc1ccc(S(=O)(=O)CC(=O)c2ccccc2)cc1" next
Reply: 2.45

Ask: Same for CC(CC(=O)c1ccccc1)C(=O)O (stereo not drawn)
Reply: 1.62

Ask: Quick one: "COC1=CC(=O)C=CC1=O"
Reply: -0.06

Ask: Ok, now "OCc1c2ccccc2cc2ccccc12"
Reply: 3.04

Ask: And what about the compound "CCc1cc2c(s1)N(C)C(=O)CN=C2c1ccccc1Cl" ?
Reply: 3.18

Ask: Now consider "CC1=CCC(C(C)C)=CC1" and answer again.
Reply: 4.5

Ask: What do you have for "Brc1cc(Br)c(Oc2c(Br)c(Br)c(Br)c(Br)c2Br)cc1Br" ?
Reply: 8.71

Ask: Repeat for the following compound: CC(NC(CCc1ccccc1)C(=O)O)C(=O)N1C(C(=O)O)CC2CCCC21 (stereo not drawn)
Reply: 0.22
